In this section, each of the compounds is paired with its reported chromatographic logP.
# measurementDescription: logP determination by HPLC on a reversed-phase column (C18), EEC Directive 79/831 Annex V.A8
# Assay type: physicochemical
# testParameters: reversed-phase HPLC column (C18), HPLC, reversed-phase C18, acetonitrile/water with formic acid, 55° C.; read-out: logP
measurementKind: chromatographic logP

[[record]]
compound = "O=C(NC1CC1)c1cc(-c2cc(-c3c(Cl)cc(C(F)(C(F)(F)F)C(F)(F)F)cc3Cl)on2)ccc1Cl [I-T23-1]"
obsvalue = 4.96

[[record]]
compound = "CC[S+]([O-])c1cc(C(F)(C(F)(F)F)C(F)(F)F)cnc1-n1cc(-c2ccc(Cl)c(C(=O)NC3CC3)c2)cn1 (stereo not shown) [I-T3-157]"
obsvalue = 3.79

[[record]]
compound = "Cc1cc(C(F)(C(F)(F)F)C(F)(F)F)cc(C)c1-n1cc(-c2ncc(Cl)c(C(=O)NC3CC3)n2)cn1 [I-T3-121]"
obsvalue = 4.5

[[record]]
compound = "O=C(NC1CC1)c1cc(-c2cnn(-c3c(F)cc(C(F)(F)F)cc3F)c2)ccc1Cl [I-T3-48]"
obsvalue = 3.2

[[record]]
compound = "Cc1cc(C(F)(C(F)(F)F)C(F)(F)F)cc(C(F)(F)F)c1N"
obsvalue = 4.67

[[record]]
compound = "NNc1c(Cl)cc(C(O)(C(F)(F)F)C(F)(F)F)cc1Cl"
obsvalue = 1.92

[[record]]
compound = "Cc1cc(C(F)(C(F)(F)F)C(F)(F)F)cc(C)c1-c1cc(-c2ccc(Cl)c(C(=O)NC3CC3)c2)on1 [I-T22-1]"
obsvalue = 4.75

[[record]]
compound = "Cc1cc(C(F)(C(F)(F)F)C(F)(F)F)cc(C(F)(F)F)c1-n1cc(-c2ccc(Cl)c(C(=S)NC3CC3)c2)cn1 [I-T3-161]"
obsvalue = 5

[[record]]
compound = "Cc1cc(C(F)(C(F)(F)F)C(F)(F)F)cc(Br)c1N"
obsvalue = 4.38

[[record]]
compound = "O=C(NC1CC1)c1cc(-c2cnn(-c3ncc(C(F)(C(F)(F)F)C(F)(F)F)cc3Cl)c2)ccc1Cl"
obsvalue = 4.08

[[record]]
compound = "Cc1cc(C(F)(C(F)(F)F)C(F)(F)F)cc(C)c1-c1cnn(-c2ccc(Cl)c(C(=O)NC3CC3)c2)c1 [I-T4-1]"
obsvalue = 4.74

[[record]]
compound = "CCSc1cc(C(F)(C(F)(F)F)C(F)(F)F)cnc1-n1cc(-c2ccc(Cl)c(C(=O)NC3CC3)c2)cn1 [I-T3-156]"
obsvalue = 4.69

[[record]]
compound = "Cc1cc(C(F)(C(F)(F)F)C(F)(F)F)cc(C)c1-n1cc(-c2ccc(Cl)c(C(=O)NC3CC3)c2)cn1 [I-T3-1]"
obsvalue = 4.36

[[record]]
compound = "Cc1cc(C(F)(C(F)(F)F)C(F)(F)F)cc(C)c1-c1cnn(-c2cnc(Cl)c(C(=O)NC3CC3)c2)c1 [I-T4-3]"
obsvalue = 4.42

[[record]]
compound = "Cc1cc(C(F)(C(F)(F)F)C(F)(F)F)cc(C(F)(F)F)c1-c1cc(-c2ccc(Cl)c(C(=O)NC3(C#N)CC3)c2)on1 [I-T22-7]"
obsvalue = 4.7

[[record]]
compound = "FC(F)(F)C(F)(c1cnc(-n2cc(Br)cn2)c(Cl)c1)C(F)(F)F"
obsvalue = 4.74


Values were extracted from patent US9758485B2.
